Reference for the values: ChEMBL document CHEMBL1126766

Target: Vanilloid receptor (Rattus norvegicus, UniProt Q9ERZ8+Q9WUD2+O35433)
Assay: In vitro effective concentration for Ca++ uptake into dorsal root ganglia neurones in culture
Type: functional
Conditions: read-out: EC50
Measured EC50, listed per entry for reference.
Attribute measured: EC50 (nM)

>>> print(df.to_string())
                                   molecule  measured_result
0  CCCCCCCCC(=O)NCc1ccc(O)c(OC)c1 [NONIVAMIDE]              550
1         CCCCCCCC/N=C(\S)NCc1ccc(O)c(OC)c1               60

----------
Reported values of EC50 for individual entries
Target: Vanilloid receptor (Rattus norvegicus, UniProt Q9ERZ8+Q9WUD2+O35433)
Assay: In vitro effective concentration for [Ca2+] uptake into dorsal root ganglia neurones in culture
Format: functional
Attribute measured: EC50 (nM)

>>> df
                           substance_smiles  attribute_measured  measured_result
0     COc1cc(CNC(=O)/C=C/c2cccc(Cl)c2)ccc1O                EC50             2580
1     COc1cc(CNC(=O)/C=C\c2ccc(Cl)cc2)ccc1O                EC50            50100
2            COc1cc(CNC(=O)CCc2ccccc2)ccc1O                EC50            45260
3        COc1cc(CNC(=O)CCc2ccc(Cl)cc2)ccc1O                EC50             3090
4  COc1cc(C/N=C(\S)NC(c2ccccc2)c2ccccc2)ccc1O                EC50              270
5   COc1cc(CNC(=O)/C=C/c2ccc(Cl)cc2Cl)ccc1O                EC50              620
